// provenance: patent US20260217698A1

- Tested on: melanin
- assay: Binding capacity of compounds to melanin
- Format: in vitro ADME, cuttlefish (Sepia officinalis)
- measurement-context: cuttlefish (Sepia officinalis), melanin suspension (1 mg/mL); 1 mg/mL melanin in PBS pH 7.4, 2 μM compound, 2 h at 37° C.; read-out: Fu % (percentage of free drug)
Please use the following fraction unbound at 2 h, 2 μM ranges when assigning a class: class 0 = under 0.03, class 1 = from 0.03 up to 0.05, class 2 = 0.05 and over

Ask | Which class holds "COc1ccc(F)c(COc2nsc(NC(=O)NCCCCN3CCCC3)c2C(N)=O)c1F" ?
Reply | class 2

Ask | Into which bin does this compound go? "NC(=O)c1c(OCc2cc(C(=O)NC3CC3)ccc2F)nsc1NC(=O)NCCCN1CC[C@H](O)C1"
Reply | class 1

Ask | Please report the category associated with "CN1CCN(CCCNC(=O)Nc2snc(OCc3ccc(F)c(C(=O)NC4CC4)c3)c2C(N)=O)CC1" , nothing else.
Reply | class 0

Ask | Please indicate the class for "CN1CCN(CCCNC(=O)Nc2snc(OCc3ccc4c(c3)OCC4)c2C(N)=O)CC1" based on its fraction unbound at 2 h, 2 μM.
Reply | class 1

Ask | Field: class (fraction unbound at 2 h, 2 μM) — entry: "NC(=O)c1c(OCc2c(F)cc(Br)cc2F)nsc1NC(=O)NCCCCN1CCCC1"
Reply | class 0

Ask | Hi, small favor: classify "NC(=O)c1c(OCc2cc3c(cc2F)CCO3)nsc1NC(=O)NCCC1CCN(CCF)CC1" by its fraction unbound at 2 h, 2 μM when you get a moment.
Reply | class 0

Ask | Lab note: which band did "NC(=O)c1c(OCc2cc3c(cc2F)CCO3)nsc1NC(=O)NCCCN1CC[C@@H](F)C1" land in?
Reply | class 2

Ask | Hi, small favor: classify "NC(=O)c1c(OCc2cc3c(cc2F)CCO3)nsc1NC(=O)NCCN1CCCCC1" by its fraction unbound at 2 h, 2 μM when you get a moment.
Reply | class 2

Ask | Tag the class for "NC(=O)c1c(OCc2ccc3c(c2)OCCC3)nsc1NC(=O)NCCCCN1CCCC1"
Reply | class 2

Ask | Assign a category based on measured fraction unbound at 2 h, 2 μM for "NC(=O)c1c(OCc2cc3c(cc2F)CCO3)nsc1NC(=O)NCCCN1CC[C@H](F)C1" and give only the class name.
Reply | class 0

Ask | For "COc1ccc(F)c(COc2nsc(NC(=O)NCCCCN3CC[C@@H](O)C3)c2C(N)=O)c1F" , which fraction unbound at 2 h, 2 μM bin applies?
Reply | class 1

Ask | Which class does "COc1cc(OC)c(F)c(COc2nsc(NC(=O)NCCCCN3CC[C@H](O)C3)c2C(N)=O)c1F" fall in?
Reply | class 0

Ask | Into which category would you place "NC(=O)c1c(OCc2ccc3c(c2F)OCC3)nsc1NC(=O)NCCCCN1CCCC1" ?
Reply | class 1

Ask | Class label required: "CN1CCN(CCCNC(=O)Nc2snc(OCc3cccc(C(=O)CC4CC4)c3)c2C(N)=O)CC1"
Reply | class 1

Ask | Category lookup for the compound COc1cc(OC)c(F)c(COc2nsc(NC(=O)NCCCC3CCCN3C)c2C(N)=O)c1F (stereo not shown)
Reply | class 1

Ask | Please report the category associated with "COc1ccc(F)c(COc2nsc(NC(=O)NCCC3CCN(CCF)CC3)c2C(N)=O)c1F" , nothing else.
Reply | class 0

---

# EGFR (Homo sapiens, UniProt P00533): IC50 values follow
# Sequence (P00533 669-1210 limits assumed): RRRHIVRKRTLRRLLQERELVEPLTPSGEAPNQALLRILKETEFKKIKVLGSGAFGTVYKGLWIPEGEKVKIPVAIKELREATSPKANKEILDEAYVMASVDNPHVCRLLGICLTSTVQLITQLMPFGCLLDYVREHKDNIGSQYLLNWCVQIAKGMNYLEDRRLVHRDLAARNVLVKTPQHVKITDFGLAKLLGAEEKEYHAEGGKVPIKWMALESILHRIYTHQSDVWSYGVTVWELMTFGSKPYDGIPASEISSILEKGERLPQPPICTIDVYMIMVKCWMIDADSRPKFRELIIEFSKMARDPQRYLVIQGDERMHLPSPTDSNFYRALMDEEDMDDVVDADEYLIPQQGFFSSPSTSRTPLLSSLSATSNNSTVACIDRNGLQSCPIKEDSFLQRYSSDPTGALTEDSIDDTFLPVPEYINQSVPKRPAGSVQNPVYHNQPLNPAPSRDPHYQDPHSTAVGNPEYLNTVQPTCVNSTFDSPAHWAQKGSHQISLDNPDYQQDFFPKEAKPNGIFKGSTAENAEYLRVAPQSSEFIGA
Field: numeric (µM). Do not append units.

Ask | Give IC50 for CN1CCN(CCCNC(=O)Nc2snc(OCc3cc(C(=O)NC4CC4)ccc3Cl)c2C(N)=O)CC1 [Compound T140]
Reply | 15.5

Ask | Indicate the recorded IC50 value for this molecule: NC(=O)c1c(OCc2cc3c(cc2F)CCO3)nsc1NC(=O)NCCCN1CC[C@@H](F)C1 [Compound T080]
Reply | 8.05

Ask | Read the entry COc1cccc(COc2nsc(NC(=O)NCCCCN3CCCC3)c2C(N)=O)c1OC [Compound T032] and write its reported IC50.
Reply | 39.6

Ask | For the molecule COc1cc(F)c(F)c(COc2nsc(NC(=O)NCCCCN3CCCC3)c2C(N)=O)c1F [Compound T142] , give its reported IC50.
Reply | 31

Ask | Fill in IC50 for record NC(=O)c1c(OCc2ccc3c(c2)OCC3)nsc1NC(=O)NCCC1CCN(CCF)CC1 [Compound T084]
Reply | 15.8

Ask | Return IC50 (reported value) for this molecule: NC(=O)c1c(OCc2cc(C(=O)NC3CC3)ccc2F)nsc1NC(=O)NCCCN1CC[C@H](O)C1 [Compound T105]
Reply | 11.9

Ask | Return IC50 for the following molecule: CN1CC[C@H](CCNC(=O)Nc2snc(OCc3cc4c(cc3F)CCO4)c2C(N)=O)C1 [Compound T095]
Reply | 11.4

Ask | Tell me its IC50 given NC(=O)c1c(OCc2cc(C(=O)O)ccc2F)nsc1NC(=O)NCCCN1CC[C@H](F)C1 [Compound T171] as the entry.
Reply | 29.1

Ask | Tell me its IC50 given NC(=O)c1c(OCc2cc3c(cc2F)CCO3)nsc1NC(=O)NCCCCN1CCCC1 [Compound T071] as the entry.
Reply | 15.2

Ask | Output measured IC50 for this item: COc1ccc(F)c(COc2nsc(NC(=O)NCCCCN3CC[C@H](O)C3)c2C(N)=O)c1F [Compound T104]
Reply | 18.9

Ask | Give the measured IC50 for COc1ccc(Cl)c(COc2nsc(NC(=O)NCCCCN3CCCC3)c2C(N)=O)c1F [Compound T146]
Reply | 26.1

Ask | Answer with reported IC50 of NC(=O)c1c(OCc2cc(C(=O)NC3CC3)ccc2Cl)nsc1NC(=O)NCCCN1CC[C@H](F)C1 [Compound T166]
Reply | 15.6

---

- target-entity: VEGFR2 (Homo sapiens, UniProt P35968)
- Sequence (P35968 790-1356 limits assumed): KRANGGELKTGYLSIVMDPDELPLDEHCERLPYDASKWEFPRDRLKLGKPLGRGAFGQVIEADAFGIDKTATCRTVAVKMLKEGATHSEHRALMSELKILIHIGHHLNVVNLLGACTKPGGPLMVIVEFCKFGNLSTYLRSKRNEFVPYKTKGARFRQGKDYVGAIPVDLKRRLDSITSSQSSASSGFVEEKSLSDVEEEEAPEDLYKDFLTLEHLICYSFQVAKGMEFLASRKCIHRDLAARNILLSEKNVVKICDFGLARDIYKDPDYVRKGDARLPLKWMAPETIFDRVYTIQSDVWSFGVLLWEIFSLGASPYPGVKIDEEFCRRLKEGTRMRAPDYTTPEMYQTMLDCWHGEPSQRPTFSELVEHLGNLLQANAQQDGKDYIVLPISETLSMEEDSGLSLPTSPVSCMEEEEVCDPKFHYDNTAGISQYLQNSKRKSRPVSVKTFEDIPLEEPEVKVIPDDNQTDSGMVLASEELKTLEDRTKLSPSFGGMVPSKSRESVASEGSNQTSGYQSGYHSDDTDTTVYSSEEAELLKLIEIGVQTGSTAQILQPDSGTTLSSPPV
- assay: Kinase inhibition, Mobility Shift Assay/IMAP, VEGFR2
- Type: biochemical
- Parameters: purchased Carna 08-191
- Description: This assay directly monitored the ability of compounds to inhibit kinase phosphorylation by measuring non-phosphorylated and phosphorylated substrates in kinase reactions by using Mobility Shift Assays/IMAP™ analysis. Read the conversion ratio data on CaliperEZ Reader II. […] “Min” indicates the readout of the control well without the addition of enzymes; and “Max” indicates the readout of the control well with the addition of DMSO Fit IC50 values with XL Fit excel add-in version […]. […]
Use IC50 to assign classes; range list: Low: < 3 nM; Mid: ≥ 3 nM and < 10 nM; High: ≥ 10 nM

Ask | Which class is correct for the following compound? "NC(=O)c1c(OCc2cc3c(cc2F)CCO3)nsc1NC(=O)NCCN1CC[C@@H](F)C1"
Reply | High

Ask | Lab note: which band did "CN1CCN(CCCNC(=O)Nc2snc(OCc3cc(C(=O)NC4CC4)ccc3F)c2C(N)=O)CC1" land in?
Reply | Low

Ask | Could you tell me which band "NC(=O)c1c(OCc2ccc3c(c2F)OCC3)nsc1NC(=O)NCCCCN1CCCC1" belongs to?
Reply | High

Ask | The entry to classify is "CN1CCC(CCNC(=O)Nc2snc(OCc3cc4c(cc3F)CCO4)c2C(N)=O)CC1" ; which class holds it?
Reply | Low

Ask | Category of "COc1ccc(F)c(COc2nsc(NC(=O)NCCCCN3CCCCC3)c2C(N)=O)c1F" , please.
Reply | High

Ask | Determine which band this compound sits in: "NC(=O)c1c(OCc2cc3c(cc2F)CCO3)nsc1NC(=O)NCCC1CCN(CCF)CC1"
Reply | Mid

Ask | Hi there! Could you help me figure out the category for "CN1CCN(CCCNC(=O)Nc2snc(OCc3cccc(C(=O)NC4CC4)c3)c2C(N)=O)CC1" please?
Reply | Low

Ask | Classify this compound: "COc1cc(OC)c(F)c(COc2nsc(NC(=O)NCCCCN3CCCC3)c2C(N)=O)c1F"
Reply | Low

Ask | Which category fits this record: "NC(=O)c1c(OCc2cccc(C(=O)NC3CC3)c2)nsc1NC(=O)NCCCN1CCCC1"
Reply | Mid

Ask | Hi there! Could you help me figure out the category for "COc1cc(COc2nsc(NC(=O)NCCCCN3CCC(F)(F)C3)c2C(N)=O)cc(OC)c1" please?
Reply | High

Ask | Classify this compound: "CC(=O)N1CCN(CCCNC(=O)Nc2snc(OCc3cc(C(=O)NC4CC4)ccc3F)c2C(N)=O)CC1"
Reply | Low

Ask | Into which bin does this compound go? "COc1ccc(F)c(COc2nsc(NC(=O)NCCCN3CC[C@@H](F)C3)c2C(N)=O)c1F"
Reply | High

Ask | Could you place "NC(=O)c1c(OCc2cccc(C(=O)NC3CC3)c2)nsc1NC(=O)NCCN1CCCC1" in its proper category? Many thanks.
Reply | High

Ask | Which bin, given its IC50, does "COc1cc(F)c(F)c(COc2nsc(NC(=O)NCCCCN3CCCC3)c2C(N)=O)c1F" occupy?
Reply | Mid

Ask | Lab note: which band did COc1cc(OC)c(F)c(COc2nsc(NC(=O)NCCCC3CCCN3C)c2C(N)=O)c1F (stereo not shown) land in?
Reply | Low

Ask | Which class holds "COc1ccc(F)c(COc2nsc(NC(=O)NCCC3CCN(C)CC3)c2C(N)=O)c1F" ?
Reply | High

Ask | Class label required: "COc1cc(OC)c(F)c(COc2nsc(NC(=O)NCCCCN3CC[C@@H](O)C3)c2C(N)=O)c1F"
Reply | Low

Ask | Hi there! Could you help me figure out the category for "NC(=O)c1c(OCc2cccc(C(=O)NC3CC3)c2)nsc1NC(=O)NCCCCN1CCCC1" please?
Reply | Mid

Ask | Which of the defined bands does the recorded IC50 of "NC(=O)c1c(OCc2cc(C(=O)NC3CC3)ccc2F)nsc1NC(=O)NCCCN1CCNCC1" sit within?
Reply | Low

Ask | Please indicate the class for "NC(=O)c1c(OCc2cc(F)cc(C(=O)NC3CC3)c2)nsc1NC(=O)NCCCCN1CCCC1" based on its IC50.
Reply | Low

Ask | For the record "NC(=O)c1c(OCc2ccc3c(c2)OCC3)nsc1NC(=O)NCCC1CCN(CCF)CC1" , report the class its IC50 corresponds to.
Reply | High

Ask | Which bin, given its IC50, does "COc1ccc(F)c(COc2nsc(NC(=O)NCCCN3CCN(C)CC3)c2C(N)=O)c1F" occupy?
Reply | Mid

Ask | Note: place this compound into its band. Item: "NC(=O)c1c(OCc2cc(C(=O)NC3CC3)ccc2F)nsc1NC(=O)NCCCN1CCCC1"
Reply | Low

Ask | Form field 'band' for "COc1cc(COc2nsc(NC(=O)NCCCCN3CCCC3)c2C(N)=O)cc(OC)c1"
Reply | High

Ask | Hey, which category is "NC(=O)c1c(OCc2cc3c(cc2F)CCO3)nsc1NC(=O)NCCCCN1CC[C@H](O)C1" in, do you know?
Reply | Mid
